Sourced from patent US4665085A

As shown below, each of these compounds has a reported number of dead animals vs. total number of animals treated value.
- Tested on: male Swiss mice (NMRI-Han)
- protocol.notes: Acute toxicity by the intraperitoneal route
- Assay type: in vivo
- test.parameters: 200 mg/kg, observation time 48 hours

{"compound": "Cc1cc(N)ccc1C=NNC1=NCCN1 [Compound 2]", "study.system": "male Swiss mice (NMRI-Han)", "result": "3/3"}

Switching to the query record.
Recorded number of dead animals vs. total number of animals treated for CC(=NNC(=N)N)c1ccc(O)cc1C [Compound 10] on male Swiss mice (NMRI-Han) was 2/3

---

- study.system: platelet α2 adrenergic receptors (Oryctolagus cuniculus, UniProt Q5ZQK3)
- Construct: from tissue; host or cells: platelet membranes from blood of male New Zealand albino rabbits
- Sequence (Q5ZQK3 1-451): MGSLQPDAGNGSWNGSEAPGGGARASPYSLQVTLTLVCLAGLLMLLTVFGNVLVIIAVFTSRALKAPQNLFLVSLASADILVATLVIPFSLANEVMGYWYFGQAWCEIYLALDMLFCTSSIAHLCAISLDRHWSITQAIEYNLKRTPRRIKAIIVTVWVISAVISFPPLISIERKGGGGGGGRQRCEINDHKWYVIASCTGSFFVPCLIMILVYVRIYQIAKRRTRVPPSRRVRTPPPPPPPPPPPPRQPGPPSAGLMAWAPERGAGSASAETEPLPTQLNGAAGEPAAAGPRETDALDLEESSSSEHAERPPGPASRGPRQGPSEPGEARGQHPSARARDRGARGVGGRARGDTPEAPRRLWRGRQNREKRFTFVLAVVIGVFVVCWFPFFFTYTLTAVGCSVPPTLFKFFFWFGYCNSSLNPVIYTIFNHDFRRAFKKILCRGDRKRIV
- protocol.notes: Affinity for platelet α2 adrenergic receptors (inhibition of specific linking of tritiated dihydroergocryptine)
- Format: binding
- test.parameters: rabbit platelet membranes, tritiated DHE 7 nM, 30 minutes at 25° C.; read-out: CE50 (dosage required to inhibit 50 percent of the linking of tritiated DHE)
As shown below, each of these compounds has a reported pIC50 value.
The read-out pIC50 is expressed as -log10 of concentration in moles per litre.

The examples below pair each entry with its known result.
{"compound": "Cc1cc(N)ccc1C=NNC1=NCCN1 [Compound 2]", "measurement.name": "pIC50", "recorded.number": 5.00}
{"compound": "COc1cc(N)ccc1C=NNC1=NCCN1 [Compound 5]", "measurement.name": "pIC50", "recorded.number": 4.85}
{"compound": "COc1cc(O)ccc1C(C)=NNC1=NCCN1 [Compound 6]", "measurement.name": "pIC50", "recorded.number": 5.60}
{"compound": "COc1cc(O)ccc1C=NNC(=N)N [Compound 9]", "measurement.name": "pIC50", "recorded.number": 5.10}
{"compound": "Cc1cc(O)ccc1C=NNC(=N)N [Compound 7]", "measurement.name": "pIC50", "recorded.number": 5.20}
{"compound": "Cc1cc(N)ccc1C=NNC(=N)N [Compound 8]", "measurement.name": "pIC50", "recorded.number": 4.49}
{"compound": "CC(=NNC1=NCCN1)c1ccc(O)cc1C [Compound 3]", "measurement.name": "pIC50", "recorded.number": 5.25}
{"compound": "COc1cc(O)ccc1C=NNC1=NCCN1 [Compound 4]", "measurement.name": "pIC50", "recorded.number": 5.52}

Reported pIC50 ( COc1cc(O)ccc1C(C)=NNC(=N)N [Compound 11] ) = 5.89

Reported pIC50 ( CC(=NNC(=N)N)c1ccc(O)cc1C [Compound 10] ) = 4.96

Reported pIC50 ( Cc1cc(O)ccc1C=NNC1=NCCN1 [Compound 1] ) = 5.52

---

- Test system: male New-Zealand rabbits
- protocol.notes: Hypotensive activity in rabbits after topical administration (intraocular pressure)
- Assay type: in vivo
- test.parameters: rabbit, 0.5% isotonic aqueous solution instilled in an eye
measurement.name: t (time corresponding to the maximum effect) (mn)
Give the number; mn is assumed, so skip it.

The examples below pair each entry with its known result.
{"smiles.text": "Cc1cc(O)ccc1C=NNC(=N)N", "recorded.number": 60}
{"smiles.text": "Cc1cc(N)ccc1C=NNC1=NCCN1", "recorded.number": 60}
{"smiles.text": "CC(=NNC1=NCCN1)c1ccc(O)cc1C", "recorded.number": 30}
{"smiles.text": "COc1cc(O)ccc1C=NNC1=NCCN1", "recorded.number": 60}
{"smiles.text": "Cc1cc(O)ccc1C=NNC1=NCCN1", "recorded.number": 60}

Switching to the query record.
Recorded t (time corresponding to the maximum effect) for `COc1cc(N)ccc1C=NNC1=NCCN1` on male New-Zealand rabbits was 120

---

- Tested on: male Swiss mice (NMRI-Han)
- protocol.notes: Acute toxicity by the intraperitoneal route
- Type: in vivo
- test.parameters: 200 mg/kg, observation time 48 hours
measurement.name: number of dead animals vs. total number of animals treated

The examples below pair each entry with its known result.
{"smiles.text": "Cc1cc(O)ccc1C=NNC1=NCCN1", "result": "0/3"}
{"smiles.text": "COc1cc(O)ccc1C=NNC(=N)N", "result": "3/3"}
{"smiles.text": "Cc1cc(N)ccc1C=NNC(=N)N", "result": "3/3"}
{"smiles.text": "COc1cc(O)ccc1C=NNC1=NCCN1", "result": "0/3"}
{"smiles.text": "CC(=NNC1=NCCN1)c1ccc(O)cc1C", "result": "3/3"}

Reported number of dead animals vs. total number of animals treated ( `Cc1cc(O)ccc1C=NNC(=N)N` ) = 3/3
